Tested on: Streptococcus pyogenes
Experiment: Antimicrobial activity against Streptococcus pyogenes clinical isolate expressing mosaic variant of mef gene by broth microdilution method
Assay type: functional
Readout Type: MIC90 (µg/mL)
Quick reminder: number only, in µg/mL, skip the unit.

Incoming: Which value of MIC90 has been reported for CC[C@H]1OC(=O)[C@H](C)[C@@H](O[C@H]2C[C@@](C)(OC)[C@@H](O)[C@H](C)O2)[C@H](C)[C@@H](O[C@@H]2O[C@H](C)C[C@H](N(C)C)[C@H]2O)[C@](C)(O)C[C@@H](C)CN(C)[C@H](C)[C@@H](O)[C@]1(C)O in the records?
Outgoing: 32

Incoming: Which value of MIC90 has been reported for CC[C@H]1OC(=O)[C@H](C)[C@@H](O[C@H]2C[C@@](C)(OC)[C@@H](O)[C@H](C)O2)[C@H](C)[C@@H](O[C@@H]2O[C@H](C)C[C@H](N(C)C)[C@H]2O)[C@](C)(O)C[C@@H](C)C(=O)[C@H](C)[C@@H](O)[C@]1(C)O in the records?
Outgoing: 16

Incoming: Which value of MIC90 has been reported for CCC[C@@H]1C[C@@H](C(=O)N[C@@H]([C@H]2O[C@H](SC)[C@H](O)[C@@H](O)[C@H]2O)[C@H](C)Cl)N(C)C1 in the records?
Outgoing: 0.06

Incoming: Which value of MIC90 has been reported for CC[C@H]1OC(=O)[C@H](C)[C@@H](O[C@H]2C[C@@](C)(OC)[C@@H](O)[C@H](C)O2)[C@H](C)[C@@H](O[C@@H]2O[C@H](C)C[C@H](N(C)C)[C@H]2O)[C@](C)(OC)C[C@@H](C)C(=O)[C@H](C)[C@@H](O)[C@]1(C)O in the records?
Outgoing: 8

Incoming: Which value of MIC90 has been reported for CN(C)[C@@H]1C(O)=C(C(N)=O)C(=O)[C@@]2(O)C(O)=C3C(=O)c4c(O)cccc4[C@@](C)(O)[C@H]3C[C@@H]12 in the records?
Outgoing: 32
